- Test system: tobacco cutworm
- assay-protocol: Long-lasting insecticidal effect on tobacco cutworm (sprayed cabbage plantlet)
- Assay type: in vivo, Prodenia litura
- condition-context: Table 5; concentration 500 (unit not given); leaves cut on 7th day, mortality after 48 hours
- Procedure: (A) An emulsifiable concentrate prepared as described in Formulation Example 2 was diluted with water to a predetermined concentration and sprayed onto a cabbage plantlet in a flower pot of 15 cm in diameter using a spray-gun sufficiently and the tests plants were placed in a green house. […] After 48 hours, percent mortality was assessed. […]
attribute-measured: Percent Mortality After Application 7th Day (%)
Output spec: scalar in %, unitless text.

{"molecule": "COP1(=S)OCc2ccccc2O1 (stereo not drawn) [Salithion, reference compound]", "measured-on": "tobacco cutworm", "recorded-measurement": 0}
{"molecule": "CCCSP(=O)(OCC)Oc1ccc2c(c1)OC(C)(C)C=C2C (stereo not drawn)", "measured-on": "tobacco cutworm", "recorded-measurement": 100}
{"molecule": "CCCSP(=O)(OCC)Oc1ccc2c(c1)OC(C)=CC2(C)C (stereo not drawn)", "measured-on": "tobacco cutworm", "recorded-measurement": 100}
{"molecule": "CNC(=O)ON=C(C)SC [Lannate, reference compound]", "measured-on": "tobacco cutworm", "recorded-measurement": 7}
{"molecule": "CCCSP(=O)(OCC)Oc1ccc2c(c1)OC(C)CC2(C)C (stereo not drawn)", "measured-on": "tobacco cutworm", "recorded-measurement": 100}
{"molecule": "CCCSP(=S)(OCC)Oc1ccc2c(c1)OC(C)=CC2(C)C (stereo not drawn)", "measured-on": "tobacco cutworm", "recorded-measurement": 100}
{"molecule": "CCCSP(=O)(OC)Oc1ccc2c(c1)OC(C)=CC2(C)C (stereo not drawn)", "measured-on": "tobacco cutworm", "recorded-measurement": 100}
{"molecule": "CCCSP(=S)(OC)Oc1ccc2c(c1)OC(C)=CC2(C)C (stereo not drawn)", "measured-on": "tobacco cutworm", "recorded-measurement": 100}

--- query ---
Quote Percent Mortality After Application 7th Day reported for CCC(C)SP(=O)(OC)Oc1ccc2c(c1)OC(C)=CC2(C)C (stereo not drawn) please. 100
